assay: Shn3 3'UTR reporter inhibitors, dose response, cell-based, Clone20 osteoblasts, firefly luciferase, cherry-picked (AID 624132); format: functional;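 also: firefly luciferase luminescence from reporter carrying the Shn3 3'UTR in osteoblasts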
Activity calls are given as the source filed them.
PROPERTY_MEASURED: AC50

Look up AC50 of O=C(Nc1ccc(S(=O)(=O)N2CCN(Cc3ccccc3)CC2)cc1)c1cnccn1 and report it.
1.65 µM (active)

Look up AC50 of CC(NCc1ccc(OCc2ccc(Cl)cc2)cc1)C(O)c1ccccc1 (centres undefined) and report it.
10.9 µM (active)

Record AC50 per entry; entries follow.
1. CCOC(=O)c1oc2ccc(S(=O)(=O)n3nc(-c4ccc(OC)cc4)cc3N)cc2c1C
2. COc1ccc(CNC(=O)C(C)n2ccc3cc(S(=O)(=O)N4CCCCCC4)ccc32)cc1 (centres undefined)

1. 1.99 µM (active)
2. 0.518 µM (active)

====

biological target: DNA dC->dU-editing enzyme APOBEC-3G (Homo sapiens); assay: Dose Response confirmation of small molecule APOBEC3G DNA Deaminase Inhibitors via a fluorescence-based single-stranded DNA deaminase assay. [Related pubchem assays (depositor defined):AID493012, AID493028]; assay type: functional
Sequence (Q9HC16 whole entry): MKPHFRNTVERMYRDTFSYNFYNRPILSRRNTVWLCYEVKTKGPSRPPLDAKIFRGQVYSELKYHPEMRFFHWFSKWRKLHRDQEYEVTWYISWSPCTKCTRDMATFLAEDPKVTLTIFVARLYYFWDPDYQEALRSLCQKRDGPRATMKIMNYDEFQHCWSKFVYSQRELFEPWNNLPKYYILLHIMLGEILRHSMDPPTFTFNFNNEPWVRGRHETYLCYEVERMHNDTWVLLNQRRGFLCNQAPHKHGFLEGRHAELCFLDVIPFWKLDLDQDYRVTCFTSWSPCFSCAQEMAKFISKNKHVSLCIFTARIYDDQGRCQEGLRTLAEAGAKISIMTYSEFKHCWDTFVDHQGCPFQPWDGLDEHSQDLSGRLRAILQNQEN
The source made the active and inactive calls.
PROPERTY_MEASURED: IC50

Worked cases, IC50 given:
Look up IC50 of CC1=C/C(=N\OS(=O)(=O)c2ccccc2)C=CC1=O and report it.
7.43 µM (active)

Look up IC50 of S=c1[nH]nc2c3c4c(sc3ncn12)CCCC4 and report it.
0.992 µM (active)

Look up IC50 of C=C(C)C(=O)Nc1cccc(C2=NOC3(C2)C[C@H](C(N)=O)N(C(=O)/C=C/C)C3)c1 (some centres not stated) and report it.
6.14 µM (active)

Record IC50 per entry; entries follow.
1. Cc1nnc(S)n1/N=C/c1ccc(-c2ccccc2[N+](=O)[O-])o1
2. CCn1c(CSc2nc3ccccc3[nH]2)n[nH]c1=S
3. Cc1ccc(-n2c(N)c(C(=O)N3CCN(C)CC3)sc2=S)cc1
4. Cc1cccc(-n2c(N)c(C(=O)N3CCN(C)CC3)sc2=S)c1

4.2 µM (active)
5.44 µM (active)
7.99 µM (active)
12.2 µM (active)

====

Heads up, these compounds all have AC50 values measured for Cytochrome P450 2D6 (Homo sapiens, UniProt P10635).

Look up AC50 of CC1(O)c2ccccc2C(=O)N1CCc1ccccc1F (stereo unspecified) and report it.
28.2 µM (inconclusive)

Look up AC50 of O=C(Nc1ccccc1)N1CCCC2(CCN(C(=O)Oc3ccccc3)CC2)C1 and report it.
20 µM (inconclusive)

Look up AC50 of Cc1ccc2occ(/C=C/C(=O)O)c(=O)c2c1 and report it.
15.8 µM (inconclusive)

Look up AC50 of Cc1noc(C)c1C(=O)N1CCC2(CC1)CCN(C(c1ccccc1)c1ccccc1)CC2 and report it.
25.1 µM (inconclusive)

Look up AC50 of CCCCc1[nH]nc2c1/C(=N/O)CC(c1ccccc1)C2 (stereo unspecified) and report it.
14.1 µM (inconclusive)

Record AC50 per entry; entries follow.
1. O=c1cc(-c2ccccc2)oc2cc(O)cc(O)c12
2. Cc1ccc(C)c(C(=N)c2ccccc2Cc2ccccc2)c1
3. COC(=O)[C@@]1(Cc2ccccc2)[C@H]2c3cc(C(=O)N4CCCC4)n(Cc4ccc(C)o4)c3C[C@H]2CN1C(=O)c1ccccc1
4. COc1ccc(Cc2c(N)nc(N)nc2N)cc1

1. 12.6 µM (inconclusive)
2. 3.16 µM (inconclusive)
3. 39.8 µM (inconclusive)
4. 17.8 µM (inconclusive)

Record AC50 per entry; entries follow.
1. CCc1nc(N)nc(N)c1-c1ccc(Cl)cc1
2. Clc1ccc2c(N[C@H]3CC[C@H](N4CCCCC4)CC3)ccnc2c1

7.94 µM (inconclusive)
3.98 µM (inconclusive)
